MEASURED ON: Full-length (FL)-PRMT5-MEP50 enzyme complex (Homo sapiens, UniProt O14744)
Construct: Full-length (FL)-PRMT5-MEP50 enzyme complex (recombinant proteins from baculovirus-transfected Sf21 cells: FL-PRMT5; MW=73837 kDa and FL-MEP50; MW=38614); made in house; host or cells: baculovirus-transfected Sf21 cells
Sequence (O14744 whole entry): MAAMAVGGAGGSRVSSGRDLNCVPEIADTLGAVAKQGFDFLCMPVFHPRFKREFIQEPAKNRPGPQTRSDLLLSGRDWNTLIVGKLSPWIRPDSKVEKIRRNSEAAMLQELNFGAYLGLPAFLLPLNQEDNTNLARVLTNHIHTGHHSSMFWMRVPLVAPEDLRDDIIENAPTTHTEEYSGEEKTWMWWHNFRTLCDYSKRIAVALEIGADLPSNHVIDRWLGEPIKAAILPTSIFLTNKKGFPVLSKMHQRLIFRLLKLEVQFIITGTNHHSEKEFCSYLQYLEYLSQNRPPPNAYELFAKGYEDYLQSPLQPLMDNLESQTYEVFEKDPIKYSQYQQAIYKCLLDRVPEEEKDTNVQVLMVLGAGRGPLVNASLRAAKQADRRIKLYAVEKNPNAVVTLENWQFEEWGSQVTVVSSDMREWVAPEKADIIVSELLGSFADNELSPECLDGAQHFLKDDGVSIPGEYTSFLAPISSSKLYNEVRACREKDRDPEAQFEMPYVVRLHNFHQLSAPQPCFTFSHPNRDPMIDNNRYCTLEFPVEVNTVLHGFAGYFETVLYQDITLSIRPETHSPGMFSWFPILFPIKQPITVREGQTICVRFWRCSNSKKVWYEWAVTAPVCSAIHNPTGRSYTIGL
Sequence (Q9BQA1 whole entry partner): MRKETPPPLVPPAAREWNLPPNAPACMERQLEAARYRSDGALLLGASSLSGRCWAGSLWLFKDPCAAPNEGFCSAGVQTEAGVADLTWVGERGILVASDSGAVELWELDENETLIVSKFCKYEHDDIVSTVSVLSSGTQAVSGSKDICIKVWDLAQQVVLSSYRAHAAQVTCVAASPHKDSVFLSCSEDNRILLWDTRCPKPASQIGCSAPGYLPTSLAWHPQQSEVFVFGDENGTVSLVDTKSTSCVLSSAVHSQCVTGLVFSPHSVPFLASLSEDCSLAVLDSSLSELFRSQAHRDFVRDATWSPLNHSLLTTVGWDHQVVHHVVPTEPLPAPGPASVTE
MEASUREMENT PROTOCOL: PRMT5-MEP50 Enzyme Methylation Assay (Version A)
Assay type: biochemical
CONDITION SUMMARY: single EC50 = 4 parameter single site sigmoidal fit; EC50 1 = first value of 7 parameter biphasic fit; read-out: Enzyme Methylation Assay Version A (EC50 or EC50 1)
TEST READOUT: EC50 (nM)

N#CCCC1CC(C(F)(F)F)Cn2cc(C(=O)N3CC[C@]4(Cc5ccccc5CN4)[C@H](O)C3)nc21 (single isomer, unassigned) [Example 164] = 4.83
Cc1c(C2CC2)cnc2nc(C(=O)N3CC[C@]4(Cc5ccccc5CN4)[C@H](O)C3)cn12 [Example 64] = 19.1
O=C(c1cn2cccc(Cl)c2n1)N1CC[C@]2(Cc3ccccc3CN2)[C@H](O)C1 [Example 206] = 4.33
O=C(c1cn2cc(Cl)cc(Br)c2n1)N1CC[C@]2(Cc3ccccc3CN2)[C@H](O)C1 [Example 210] = 0.207
Cc1ccc(C(=O)N2CC[C@]3(Cc4ccccc4CN3)[C@H](O)C2)c(-n2nccn2)n1 [Example 186] = 0.241

a. O=C(c1cnc2ncc(Br)cn12)N1CC[C@]2(Cc3ccccc3CN2)[C@H](O)C1 [Example 25]
b. COC(C)c1ccc2nc(C(=O)N3CC[C@]4(Cc5ccccc5CN4)[C@H](O)C3)cn2c1 (single isomer, unassigned) [Example 22]
Select the item whose EC50 value is smaller, choosing between a and b . // caller expects the label of the chosen entry b
(b: 0.674 nM, a: 7.12 nM)

----------
MEASURED ON: Full-length (FL)-PRMT5-MEP50 enzyme complex (Homo sapiens, UniProt O14744)
Construct: Full-length (FL)-PRMT5-MEP50 enzyme complex (recombinant proteins from baculovirus-transfected Sf21 cells: FL-PRMT5; MW=73837 kDa and FL-MEP50; MW=38614); made in house; host or cells: baculovirus-transfected Sf21 cells
MEASUREMENT PROTOCOL: PRMT5-MEP50 Enzyme Methylation Assay (Version A)
Format: biochemical
CONDITION SUMMARY: single EC50 = 4 parameter single site sigmoidal fit; EC50 1 = first value of 7 parameter biphasic fit; read-out: Enzyme Methylation Assay Version A (EC50 or EC50 1)
pEC50: −log10 of the molar value.
TEST READOUT: pEC50

Consider the worked cases shown below.
Cc1cc2ncc(C(=O)N3CC[C@]4(Cc5ccccc5CN4)[C@H](O)C3)c(C)n2n1 = 7.68
N#CCCc1cc(C(F)(F)F)cn2cc(C(=O)N3CC[C@]4(Cc5ccccc5CN4)[C@H](O)C3)nc12 = 9.04
COc1cc2nc(C(=O)N3CC[C@]4(Cc5ccccc5CN4)[C@H](O)C3)cn2cc1Br = 9.29

1. O=C(c1ccc2nccn2n1)N1CC[C@]2(Cc3ccccc3CN2)[C@H](O)C1
2. Cc1cc(Br)c2nc(C(=O)N3CC[C@]4(Cc5ccccc5CN4)[C@H](O)C3)cn2c1
3. COCc1cc(Cl)cn2cc(C(=O)N3CC[C@]4(Cc5ccccc5CN4)[C@H](O)C3)nc12
4. CN1CC(C2CC2)Cn2cc(C(=O)N3CC[C@]4(Cc5ccccc5CN4)[C@H](O)C3)nc21 (single isomer, unassigned) [Example 139]
List the 4 entries from lowest pEC50 to highest pEC50 value. Could you list the labels in the order requested? 1, 4, 2, 3
(1: 6.84, 4: 8.09, 2: 8.94, 3: 9.15)

----------
MEASURED ON: Full-length (FL)-PRMT5-MEP50 enzyme complex (Homo sapiens)
Construct: Full-length (FL)-PRMT5-MEP50 enzyme complex (recombinant proteins from baculovirus-transfected Sf21 cells: FL-PRMT5; MW=73837 kDa and FL-MEP50; MW=38614); made in house; host or cells: baculovirus-transfected Sf21 cells
MEASUREMENT PROTOCOL: PRMT5-MEP50 Enzyme Methylation Assay (Version A)
Type: biochemical
CONDITION SUMMARY: second value of 7 parameter biphasic fit; read-out: Enzyme Methylation Assay Version A (EC50 2)
pEC50: −log10 of the molar value.
TEST READOUT: pEC50

Here is how some compounds turned out for pEC50.
COC(C)c1cc(C)c2nc(C(=O)N3CC[C@]4(Cc5ccccc5CN4)[C@H](O)C3)cn2c1 (single isomer, unassigned) [Example 123] = 6.74
COC(C)c1cc(C)c2nc(C(=O)N3CC[C@]4(Cc5ccccc5CN4)[C@H](O)C3)cn2c1 (single isomer, unassigned) [Example 122] = 6.84

P. O=C(c1cn2cc(Br)cc(C(O)C(F)(F)F)c2n1)N1CC[C@]2(Cc3ccccc3CN2)[C@H](O)C1 (single isomer, unassigned) [Example 31]
Q. COCC1CC(C)Cn2cc(C(=O)N3CC[C@]4(Cc5ccccc5CN4)[C@H](O)C3)nc21 (single isomer, unassigned) [Example 157]
Which value of pEC50 is smaller, the one for P or the one for Q ? # respond with the chosen item's label Q

a. N#CCCC1CC(C(F)(F)F)Cn2cc(C(=O)N3CC[C@]4(Cc5ccccc5CN4)[C@H](O)C3)nc21 (single isomer, unassigned) [Example 165]
b. COC(C)c1ccc2nc(C(=O)N3CC[C@]4(Cc5ccccc5CN4)[C@H](O)C3)cn2c1 (single isomer, unassigned) [Example 23]
Among a and b , which shows a numerically higher pEC50 result? Could you answer with the label of the item you picked? b
(b: 6.07, a: 4.57)

----------
MEASURED ON: Full-length (FL)-PRMT5-MEP50 enzyme complex (Homo sapiens, UniProt O14744)
Construct: Full-length (FL)-PRMT5-MEP50 enzyme complex (recombinant proteins from baculovirus-transfected Sf21 cells: FL-PRMT5; MW=73837 kDa and FL-MEP50; MW=38614); made in house; host or cells: baculovirus-transfected Sf21 cells
MEASUREMENT PROTOCOL: PRMT5-MEP50 Enzyme Methylation Assay (Version B)
Type: biochemical
CONDITION SUMMARY: second value of 7 parameter biphasic fit; read-out: Enzyme Methylation Assay Version B (EC50 2)
pEC50: −log10 of the molar value.
TEST READOUT: pEC50

Some entries whose results are on file:
CC(=O)N1CCC(Nc2cc(C(=O)N3CC[C@]4(Cc5ccccc5CN4)[C@H](O)C3)c(Cl)cn2)CC1 = 5.82
CCOc1cc(C(=O)N2C3CCC2COC3)ccc1C(=O)N1CCC2(Cc3ccccc3CN2)C(O)C1 (single isomer, unassigned) [Example 87] = 6.17
CC(=O)N1CCC(Nc2cc(C(=O)N3CCC4(Cc5ccccc5CN4)C(O)C3)ncn2)CC1 (single isomer, unassigned) [Example 91] = 6.29

A. CC(=O)N1CCC(Nc2cc(C(=O)N3CCC4(CC3)Cc3ccc(Cl)cc3CN4)ncn2)CC1
B. CC(=O)N1CCC(Nc2cc(C(=O)N3CC[C@]4(Cc5ccccc5CN4)[C@H](O)C3)ccn2)C(F)(F)C1 (single isomer, unassigned) [Example 96]
C. CC(=O)N1CCC(Nc2cc(C(=O)N3CC[C@]4(Cc5ccccc5CN4)[C@H](O)C3)c(F)cn2)CC1
Provide the items ranked by increasing pEC50. Provide the ranking by listing each label in its place in the requested order. B, A, C

----------
MEASURED ON: Full-length (FL)-PRMT5-MEP50 enzyme complex (Homo sapiens)
Construct: Full-length (FL)-PRMT5-MEP50 enzyme complex (recombinant proteins from baculovirus-transfected Sf21 cells: FL-PRMT5; MW=73837 kDa and FL-MEP50; MW=38614); made in house; host or cells: baculovirus-transfected Sf21 cells
MEASUREMENT PROTOCOL: PRMT5-MEP50 Enzyme Methylation Assay (Version A)
Format: biochemical
CONDITION SUMMARY: second value of 7 parameter biphasic fit; read-out: Enzyme Methylation Assay Version A (EC50 2)
pEC50: −log10 of the molar value.
TEST READOUT: pEC50

N#CCCC1CC(C(F)(F)F)Cn2cc(C(=O)N3CC[C@]4(Cc5ccccc5CN4)[C@H](O)C3)nc21 (single isomer, unassigned) [Example 164] = 5.33

a. Cc1c(C(=O)N2CC[C@]3(Cc4ccccc4CN3)[C@H](O)C2)nn2cc(Br)cnc12
b. COc1cc(Br)cn2cc(C(=O)N3CC[C@]4(Cc5ccccc5CN4)[C@H](O)C3)nc12
Form field 'greater pEC50' accepts a or b ; which applies? Returns: label corresponding to the selected item. b

----------
Tested on: symmetric dimethylation of arginine (SDMA) of PRMT5 substrates in MCF-7 cells
MEASUREMENT PROTOCOL: PRMT5 Cell Target Engagement (TE) Assay
Assay type: cell-based
CONDITION SUMMARY: 3 days treatment, SDMA high content imaging
TEST READOUT: EC50 (nM)

CC1CC1c1cnc2nc(C(=O)N3CC[C@]4(Cc5ccccc5CN4)[C@H](O)C3)cn2c1 (single isomer, unassigned) [Example 76] = 4.02

P. CC(O)c1cc(Br)cn2cc(C(=O)N3CC[C@]4(Cc5ccccc5CN4)[C@H](O)C3)nc12 (single isomer, unassigned) [Example 33]
Q. CC(n1ccc(C(=O)N2CC[C@]3(Cc4ccccc4CN3)[C@H](O)C2)cc1=O)C(F)(F)F (single isomer, unassigned) [Example 103]
I'd appreciate it if you could identify which of P and Q has the greater EC50. I would appreciate it if you answered with the label of your choice. Q
